Collected selectivity ratio values appear next to each entry.
Test: Selectivity index, ratio of CC50 for cytotoxicity against mouse J774 cells to IC50 for antitrypanosomal activity against Trypanosoma cruzi Queretaro epimastigotes
Type: toxicity, cell-based
Details: read-out: Ratio CC50/IC50
attribute.measured: selectivity ratio

1) COc1cc(/C=C/C=N/NC(=O)c2ccc3[nH]c(C)nc3c2)ccc1O ... 20.1
2) CC1CS(=O)(=O)CCN1/N=C/c1ccc([N+](=O)[O-])o1 (stereo not given) ... 36.5
3) Cc1nc2cc(C(=O)NN)ccc2[nH]1 ... 0.6
4) COc1cc(/C=N/NC(=O)c2ccc3[nH]c(C)nc3c2)ccc1O ... 53.5
5) Cc1nc2cc(C(=O)O)ccc2[nH]1 ... 1.2
